study.system: T1, TROP2 expressed on human cancer cell lines (human, UniProt P09758 27-323)
T1 construct: Endogenous TROP2 on human tumour cell lines; also called TROP2-expressing SKBR3 cells; HCC1954
T1 sequence: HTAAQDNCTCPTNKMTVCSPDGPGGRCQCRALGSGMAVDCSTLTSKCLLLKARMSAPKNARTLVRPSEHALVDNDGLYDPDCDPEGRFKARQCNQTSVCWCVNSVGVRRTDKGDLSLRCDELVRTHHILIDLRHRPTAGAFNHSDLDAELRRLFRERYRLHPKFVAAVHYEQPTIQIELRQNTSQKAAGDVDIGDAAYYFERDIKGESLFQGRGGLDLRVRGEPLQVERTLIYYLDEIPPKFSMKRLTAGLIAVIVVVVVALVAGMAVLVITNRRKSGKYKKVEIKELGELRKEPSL
experiment.description: flow cytometry of SKBR3 cells after overnight incubation with the antibody pre-mixed with pHAb-labelled secondary antibody (internalization assay); x axis pHAb-A, y axis Count

{"columns": ["binder", "binding result"],
 "data": [
  ["anti-TROP2 antibody 15D9 (antibody, V domains shown, Mouse anti-human TROP2 hybridoma antibody) VH: QVQLQQSGAELVRPGVSVKISCKGSGYTFTDYSIHWVKQSHAKSLEWIGVISSYYGDATYNQKFKGKATMTVDKSSSTAYMELARLTSEDSAIYYCALLGAYNYFDYWGQGTTLTVSS VL: DIVLTQSPASLAVSLGQRATISCRASESVDSYGNSFMHWYQQKPGQPPKLLVYRASNLESGIPARFSGSGSRTDFTLTINPVEADDVATYYCQQSYEDPPTFGGGTKLEIK", "binds"]
]}
